Test system: hepatocytes
Test: RNA-seq of hepatocytes treated with Phase III failure compounds
Details: gene BCHE; hepatocytes
Where a name gives a salt, the structure may show the parent alone.
Readout: BCHE expression, RNA-seq result

COc1cccc2c1C(=O)c1c(O)c3c(c(O)c1C2=O)C[C@@](O)(/C(CO)=N/NC(=O)CCCCCN1C(=O)C=CC1=O)C[C@@H]3O[C@H]1C[C@H](N)[C@H](O)[C@H](C)O1: −0.69
COc1nc(C)cnc1NS(=O)(=O)c1cccnc1-c1ccc(-c2nnco2)cc1: 0.02
Fc1ccc(C(OCCN2CCN(CCCc3ccccc3)CC2)c2ccc(F)cc2)cc1 [Vanoxerine (dihydrochloride), Vanoxerine]: −0.5
COCCOc1ccc(N2CCN(CCn3ncc4c3nc(N)n3nc(-c5ccco5)nc43)CC2)cc1: −0.63
CN(C)[C@@H]1C(O)=C(C(N)=O)C(=O)[C@@]2(O)C(O)=C3C(=O)c4c(O)c(NC(=O)CN5CCCC5)cc(F)c4C[C@H]3C[C@@H]12 [TP-434 (Eravacycline), Eravacycline]: 0.12
O=C(N[C@H]1CN2CCC1CC2)c1cc2cccc(Cl)c2s1 [EVP-6124 (hydrochloride) (encenicline), encenicline]: −0.41
Cn1c(COP(=O)(NCCBr)NCCBr)cnc1[N+](=O)[O-] [TH-302 (Evofosfamide), Evofosfamide]: −0.07
COc1nc(N)nc2c1ncn2[C@@H]1O[C@H](COP(=O)(N[C@@H](C)C(=O)OCC(C)(C)C)Oc2cccc3ccccc23)[C@@H](O)[C@@]1(C)O (stereo partly shown): −0.67
C=CC(=O)Nc1cccc(Nc2nc(Nc3ccc(N4CCN(C(C)=O)CC4)cc3OC)ncc2C(F)(F)F)c1 [CO-1686 (Rociletinib), Rociletinib]: −0.79
CC(C)[C@H](O)C(=O)N[C@@H](C)C(=O)N[C@@H]1C(=O)N(C)CCc2ccccc21: −0.07

----------
System: hepatocytes
Test: RNA-seq of hepatocytes treated with Phase III failure compounds
Protocol: RNA-seq was performed to determine the effects of the compounds on hepatocytes. Significance was determined by the criteria of FPKM≥0.5, a log 2(fold-change)≥1, and a […].
Readout: RNA-seq results: CYP3A4 expression

CCOC(=O)N1c2ccc(C(F)(F)F)cc2[C@@H](N(Cc2cc(C(F)(F)F)cc(C(F)(F)F)c2)C(=O)OC)C[C@H]1CC [Torcetrapib]: 0.49
Cn1cnc2c(F)c(Nc3ccc(Br)cc3Cl)c(C(=O)NOCCO)cc21 [Selumetinib]: 0.11
Cn1cc(C2=C(c3cn(C4CCN(Cc5ccccn5)CC4)c4ccccc34)C(=O)NC2=O)c2ccccc21 [Enzastaurin]: 0.01
COc1cc2c(Oc3ccc4[nH]c(C)cc4c3F)ncnc2cc1OCCCN1CCCC1 [Cediranib]: 1.58

----------
Tested on: hepatocytes
Assay: RNA-seq of hepatocytes treated with Phase III failure compounds
Settings: gene GBE1; hepatocytes
RNA-seq results: GBE1 expression: recorded values
Readout: RNA-seq results: GBE1 expression

CCOC(=O)N1c2ccc(C(F)(F)F)cc2[C@@H](N(Cc2cc(C(F)(F)F)cc(C(F)(F)F)c2)C(=O)OC)C[C@H]1CC: 0.39
C=CCNC1=C2C[C@@H](C)C[C@H](OC)[C@H](O)[C@@H](C)/C=C(\C)[C@H](OC(N)=O)[C@@H](OC)/C=C\C=C(/C)C(=O)NC(=CC1=O)C2=O: −2.25
COc1cc2nccc(Oc3ccc(NC(=O)Nc4cc(C)on4)c(Cl)c3)c2cc1OC: −0.06

----------
Test system: hepatocytes
Assay: RNA-seq of hepatocytes treated with Phase III failure compounds
Conditions: gene SLC22A5; hepatocytes
RNA-seq results: SLC22A5: recorded values
Readout: RNA-seq results: SLC22A5

COc1cc2nccc(Oc3ccc(NC(=O)Nc4cc(C)on4)c(Cl)c3)c2cc1OC: −0.38
C=CCNC1=C2C[C@@H](C)C[C@H](OC)[C@H](O)[C@@H](C)/C=C(\C)[C@H](OC(N)=O)[C@@H](OC)/C=C\C=C(/C)C(=O)NC(=CC1=O)C2=O: −0.72
Cn1cnc2c(F)c(Nc3ccc(Br)cc3Cl)c(C(=O)NOCCO)cc21: 0.32
CCOC(=O)N1c2ccc(C(F)(F)F)cc2[C@@H](N(Cc2cc(C(F)(F)F)cc(C(F)(F)F)c2)C(=O)OC)C[C@H]1CC: −0.06
Cn1cc(C2=C(c3cn(C4CCN(Cc5ccccn5)CC4)c4ccccc34)C(=O)NC2=O)c2ccccc21: 0.26
CCN(CC)CCN(Cc1ccc(-c2ccc(C(F)(F)F)cc2)cc1)C(=O)Cn1c(SCc2ccc(F)cc2)nc(=O)c2c1CCC2: −0.23
NC(=O)c1ccc(I)c([N+](=O)[O-])c1: 0.05
CCC(CC)[C@H](NC(C)=O)[C@@H]1[C@H](O)[C@@H](C(=O)O)C[C@H]1NC(=N)N.O.O.O [peramivir (trihydrate), peramivir]: −0.16
COc1cc(Nc2ncc(F)c(Nc3ccc4c(n3)N(COP(=O)(O)O)C(=O)C(C)(C)O4)n2)cc(OC)c1OC: −0.46
COc1cc2c(Oc3ccc4[nH]c(C)cc4c3F)ncnc2cc1OCCCN1CCCC1: 0.06
O=P(O)(NCCCl)NCCCl [Palifosfamide]: 0.03

----------
Tested on: hepatocytes
Test: RNA-seq of hepatocytes treated with Phase III failure compounds
Details: gene SLC10A5; hepatocytes
So basically, the class depends on measured RNA-seq results: SLC10A5, and the ranges are b0 (below -0.5), b1 (-0.5 to below 0.5), b2 (0.5 or more)

COc1cc2nccc(Oc3ccc(NC(=O)Nc4cc(C)on4)c(Cl)c3)c2cc1OC: b0
CCN(CC)CCN(Cc1ccc(-c2ccc(C(F)(F)F)cc2)cc1)C(=O)Cn1c(SCc2ccc(F)cc2)nc(=O)c2c1CCC2: b0
CCC(CC)[C@H](NC(C)=O)[C@@H]1[C@H](O)[C@@H](C(=O)O)C[C@H]1NC(=N)N.O.O.O [peramivir (trihydrate), peramivir]: b1
COc1cc2c(Oc3ccc4[nH]c(C)cc4c3F)ncnc2cc1OCCCN1CCCC1: b0
O=P(O)(NCCCl)NCCCl [Palifosfamide]: b1
Cn1cnc2c(F)c(Nc3ccc(Br)cc3Cl)c(C(=O)NOCCO)cc21: b2
CCOC(=O)N1c2ccc(C(F)(F)F)cc2[C@@H](N(Cc2cc(C(F)(F)F)cc(C(F)(F)F)c2)C(=O)OC)C[C@H]1CC: b1
COc1cc(Nc2ncc(F)c(Nc3ccc4c(n3)N(COP(=O)(O)O)C(=O)C(C)(C)O4)n2)cc(OC)c1OC: b2
C=CCNC1=C2C[C@@H](C)C[C@H](OC)[C@H](O)[C@@H](C)/C=C(\C)[C@H](OC(N)=O)[C@@H](OC)/C=C\C=C(/C)C(=O)NC(=CC1=O)C2=O: b2
Cn1cc(C2=C(c3cn(C4CCN(Cc5ccccn5)CC4)c4ccccc34)C(=O)NC2=O)c2ccccc21: b0
NC(=O)c1ccc(I)c([N+](=O)[O-])c1: b1

----------
Tested on: hepatocytes
Assay: RNA-seq of hepatocytes treated with Phase III failure compounds
Conditions: gene FASLG; hepatocytes
RNA-seq results: FASLG expression: recorded values
Readout: RNA-seq results: FASLG expression

CCOC(=O)N1c2ccc(C(F)(F)F)cc2[C@@H](N(Cc2cc(C(F)(F)F)cc(C(F)(F)F)c2)C(=O)OC)C[C@H]1CC: −1.19
COc1cc2nccc(Oc3ccc(NC(=O)Nc4cc(C)on4)c(Cl)c3)c2cc1OC: −0.16
Cn1cnc2c(F)c(Nc3ccc(Br)cc3Cl)c(C(=O)NOCCO)cc21: −0.55
CCN(CC)CCN(Cc1ccc(-c2ccc(C(F)(F)F)cc2)cc1)C(=O)Cn1c(SCc2ccc(F)cc2)nc(=O)c2c1CCC2: −1.32
NC(=O)c1ccc(I)c([N+](=O)[O-])c1: −0.21
Cn1cc(C2=C(c3cn(C4CCN(Cc5ccccn5)CC4)c4ccccc34)C(=O)NC2=O)c2ccccc21: 0.35
COc1cc(Nc2ncc(F)c(Nc3ccc4c(n3)N(COP(=O)(O)O)C(=O)C(C)(C)O4)n2)cc(OC)c1OC: −0.31
C=CCNC1=C2C[C@@H](C)C[C@H](OC)[C@H](O)[C@@H](C)/C=C(\C)[C@H](OC(N)=O)[C@@H](OC)/C=C\C=C(/C)C(=O)NC(=CC1=O)C2=O: −1.15
CCC(CC)[C@H](NC(C)=O)[C@@H]1[C@H](O)[C@@H](C(=O)O)C[C@H]1NC(=N)N.O.O.O [peramivir (trihydrate), peramivir]: −0.66
O=P(O)(NCCCl)NCCCl [Palifosfamide]: −1.44
COc1cc2c(Oc3ccc4[nH]c(C)cc4c3F)ncnc2cc1OCCCN1CCCC1: −1.48

----------
Tested on: hepatocytes
Assay: RNA-seq of hepatocytes treated with Phase III failure compounds
Conditions: gene RSAD1; hepatocytes
RNA-seq results: RSAD1: recorded values
Readout: RNA-seq results: RSAD1

NC(=O)c1ccc(I)c([N+](=O)[O-])c1: −0.02
CCN(CC)CCN(Cc1ccc(-c2ccc(C(F)(F)F)cc2)cc1)C(=O)Cn1c(SCc2ccc(F)cc2)nc(=O)c2c1CCC2: −0.13
CCC(CC)[C@H](NC(C)=O)[C@@H]1[C@H](O)[C@@H](C(=O)O)C[C@H]1NC(=N)N.O.O.O [peramivir (trihydrate), peramivir]: 0.11
O=P(O)(NCCCl)NCCCl [Palifosfamide]: 0.12
